Test system: SN12C renal
assay summary: NCI tumour cell line growth inhibition, 48 h
Catalogue of GI50 values
measured metric: GI50

> print(dat)
                                 cpd.smiles  measured.metric  measurement
1    CNCCNc1nc2ccccc2c2c(=O)c3cc(F)ccc3sc12             GI50      1610 nM
2  COc1ccc(NC(=O)n2nc(/C=C\c3ccc(O)c(OC)c3)cc2/C=C\c2ccc(O)c(OC)c2)cc1             GI50      3050 nM
3    Oc1c(CN2CCCC2)cc(CSCc2ccccc2)c2cccnc12             GI50      1690 nM
4  C/C(=C(/c1ccc(O)cc1)c1ccc(Cl)cc1)c1ccccc1             GI50       466 nM
5  Cc1cc2nc(-c3c(N)ncc(C#N)c3-c3ccc(Cl)cc3)[nH]c2cc1C             GI50     31000 nM

====

Tested on: 786-0 renal
assay summary: NCI tumour cell line growth inhibition, 48 h
Readings of TGI for the listed compounds
measured metric: TGI

> print(dat)
                                    compound  measurement
 1  CCOC(=O)c1c(N)sc2c1C(C(=O)OCC)CCC2 (configuration not stated)     > 100 µM
 2  COC(=O)C1CC23C=CCN4CC(C2C)C2(c5ccccc5NC12)C43 (configuration not stated)     > 100 µM
 3                     O=P(O)(O)C=C=C1CCCCC1     > 100 µM
 4  COC(=O)c1cc(-c2ccc(OC)cc2)[nH]c1N/N=C/c1c(Cl)cccc1Cl      4.79 µM
 5         O=C(O)COc1cc(-c2ccccc2)nc2ccccc12     > 100 µM
 6                        Clc1ccc2ns[s+]c2c1     > 100 µM
 7  C[C@]12CC[C@H]3[C@@H](CC[C@]4(O)C[C@@H](O)CC[C@]34CO)[C@@]1(O)CC[C@@H]2C1=CC(=O)OC1      11.7 µM
 8  COC(=O)[C@](C)(Cc1ccccc1)NC(=O)[C@@H](C)N1[C@@H](c2ccccc2)COC1(C)C     > 100 µM
 9  Cc1nc2cccc(F)c2c(=O)n1-c1nnc(C(F)(F)F)s1      > 10 µM
10         O=c1cc(-c2ccccn2)[nH]c2cc(F)ccc12     > 100 µM
11  CCCCNC(=O)Oc1ccc(/C(=C(/CC)Cc2ccccc2)c2ccc(OCCN3CCCCCC3)cc2)cc1        30 µM
12  COC(=O)[C@@]1(C)CCC[C@]2(C(=O)O)C3Cc4occc4[C@H](C)[C@@H]3CCC21 (some centres not stated)     > 100 µM
13  CCn1c(=O)c2c3ccc(OC(C)=O)cc3[nH]c2c2ccc(OC(C)=O)cc21     > 100 µM
14  CC(/C=C/NNC1=NC(c2ccccc2)C(c2ccccc2)=NN1)Sc1ccccc1N (configuration not stated)      13.6 µM
15  COc1cc(/C=C2\CC3C4CC=C5C[C@@H](O)CC[C@]5(C)C4CC[C@]3(C)C2=O)ccc1OCCCn1ccnc1 (some centres not stated)      31.3 µM
16  CC(C)(C)n1cc(-c2ccnc(NCCCNS(=O)(=O)c3ccc(Br)cc3)c2)c(-c2cccc(O)c2)n1      3.16 µM
17  O=c1c(O)cccn1C1OC(CO)C(O)C1O (configuration not stated)     > 100 µM
18  COC(=O)c1cc(C)ccc1C1CN=NC12Cc1c(C)cc(C)cc1C2=O (configuration not stated)     > 100 µM
19  CC12CC=CCC1CCC1C2CCC2(C)C(c3ccc(=O)oc3)CCC12O (configuration not stated)     0.209 µM
20                     Nc1nc(N)nc(CC(=O)O)n1     > 100 µM
21  Cc1cn(CCOCCOC(=O)NC(CCCNC(N)=O)C(=O)O)c(=O)[nH]c1=O (configuration not stated)     > 100 µM
22                         O=C(O)CCSC1=NCCN1     > 100 µM
